Cited source for all entries: patent US20130344139A1

In this section, each of the compounds is paired with its reported IC50.
TARGET OR TEST SYSTEM: human histamine H1 receptor (Homo sapiens)
Sequence (P35367 whole entry): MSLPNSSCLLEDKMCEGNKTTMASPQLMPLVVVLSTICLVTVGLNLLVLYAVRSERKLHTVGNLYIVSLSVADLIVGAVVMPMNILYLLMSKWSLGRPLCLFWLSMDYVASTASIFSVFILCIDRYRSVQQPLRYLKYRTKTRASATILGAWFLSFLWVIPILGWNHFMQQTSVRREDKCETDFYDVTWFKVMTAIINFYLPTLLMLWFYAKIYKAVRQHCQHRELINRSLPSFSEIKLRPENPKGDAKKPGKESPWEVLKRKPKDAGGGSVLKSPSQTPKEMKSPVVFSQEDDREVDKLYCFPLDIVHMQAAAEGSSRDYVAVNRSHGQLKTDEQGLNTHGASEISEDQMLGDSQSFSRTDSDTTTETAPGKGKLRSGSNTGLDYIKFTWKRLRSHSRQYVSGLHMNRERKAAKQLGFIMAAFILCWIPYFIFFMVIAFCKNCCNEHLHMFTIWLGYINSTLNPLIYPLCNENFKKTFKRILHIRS
PROTOCOL NOTES: H1 receptor potency: inhibition of histamine stimulation in CHO-K1 H1 cells

COMPOUND: CCOCCn1c(C2CCN(CCc3ccc(C(C)(C)C(=O)O)cc3)CC2)nc2ccccc21 [bilastine]
IC50 [nM]: 165

COMPOUND: NC1=NCC2c3ccccc3Cc3ccccc3N12 (centres unmarked) [epinastine]
IC50 [nM]: 19

---

TARGET OR TEST SYSTEM: human muscarinic receptor M1 (Homo sapiens, UniProt P11229)
Sequence (P11229 whole entry): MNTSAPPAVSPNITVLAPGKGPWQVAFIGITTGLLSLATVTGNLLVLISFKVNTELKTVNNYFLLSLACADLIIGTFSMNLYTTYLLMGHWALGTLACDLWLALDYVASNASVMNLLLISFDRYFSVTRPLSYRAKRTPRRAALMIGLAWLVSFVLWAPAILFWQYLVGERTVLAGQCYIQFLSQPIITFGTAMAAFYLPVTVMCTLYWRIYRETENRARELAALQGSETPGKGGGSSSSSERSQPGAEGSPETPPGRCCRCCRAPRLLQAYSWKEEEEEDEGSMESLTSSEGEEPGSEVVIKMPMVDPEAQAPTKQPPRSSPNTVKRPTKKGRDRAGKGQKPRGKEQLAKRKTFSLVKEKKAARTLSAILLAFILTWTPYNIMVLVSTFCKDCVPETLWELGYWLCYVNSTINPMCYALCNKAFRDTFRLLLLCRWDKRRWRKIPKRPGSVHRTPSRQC
pIC50: −log10 of the molar value.

COMPOUND: CN(C)CC/C=C1/c2ccccc2COc2ccc(CC(=O)O)cc21 [olopatadine]
pIC50: 5.76
